Test system: SRPK2
reported conditions: concentration: 1 μM, replicates: in singlicate; n = 1
endpoint name: %Inh (%)
Write the value in % as a bare number.

Solved cases (10 shown):
compound	assay system	%Inh / %
CC(=O)Nc1nc2cnc(Nc3cc(NC(=O)c4cccc(CCC#N)c4)ccc3C)nc2s1	SRPK2	22
O=C1NC(=O)C(N2CCc3ccccc32)=C1c1ccccc1Cl	SRPK2	0
COc1cccc(NC(=O)NC2CCN(c3ccnc(Nc4ccc(F)cc4)n3)C2)c1 (stereo not drawn)	SRPK2	5
Fc1cc(Cl)ccc1Nc1ccnc2cc(I)ccc12	SRPK2	0
Cc1ccc(NC(=O)Nc2cc(C(C)(C)C)nn2-c2ccccc2)cc1	SRPK2	0
Cl.O=C(Nc1cccc(-c2nn3ncccc3c2-c2ccnc(Nc3cccnc3)n2)c1)c1c(F)cccc1F	SRPK2	0
Cc1cccc(-c2cc(Nc3ccncc3)c3ccccc3n2)n1	SRPK2	0
CC(C)(C)c1ccc(C(=O)Nc2cn3cc(Cl)ccc3n2)cc1	SRPK2	0
O=C(O)COc1ncnc2cc(-c3ccc4[nH]ncc4c3)sc12	SRPK2	0
COc1ccc(Nc2nccc(NCCNC(=O)Nc3ccccc3F)n2)cc1	SRPK2	0

Record Cc1ccccc1-n1cnc2c(N)ncnc21 . Reported %Inh: 0

// %Inh lookup, compound = Cl.NC(=O)c1cccc(Nc2nccc(Nc3ccc(Oc4cccc(Cl)c4)c(Cl)c3)n2)c1 , result: 0

compound COc1ccc(C2=C(Nc3cccc(C(=O)O)c3)C(=O)NC2=O)cc1 , %Inh observed: 0

Input Cc1cccc(-c2nc(Nc3ccncc3)c3ccccc3n2)n1 . Output %Inh: 54

%Inh reported for this compound Cc1c(Cn2ccn3c(=O)cc(N4CCOCC4)nc23)cccc1C(F)(F)F : 0

%Inh for CC(C)(C)c1ccc(C(=O)Nc2cn3cc(-c4cccnc4)ccc3n2)cc1 is 0

Per the record, Cc1cccc(-c2nc(Nc3ccc4[nH]ncc4c3)c3ccccc3n2)n1 has %Inh of 0

Measured %Inh of O=C(Nc1n[nH]c2cc(-c3cccc(F)c3F)ccc12)C1CC1 : 22

Input COc1cccc(-c2cc(-c3c[nH]nc3-c3ccccn3)ccn2)c1 . Output %Inh: 8

Noted for Cc1ccc(-c2cc(-c3c[nH]nc3-c3ccccn3)ccn2)cc1 : its %Inh reads 52

Per the records, this compound ( Cl.c1ccc(-c2n[nH]cc2-c2ccnc(-c3ccc(CN4CCOCC4)cc3)c2)nc1 ) has %Inh equal to 0

Record summary for CN(C)CCN(C)C(=O)c1cc(-c2ccncc2)c(-c2ccc(Cl)c(O)c2)o1.Cl.Cl : reported %Inh = 18

For this compound ( Fc1cc(Cl)ccc1Nc1ccnc2cc(-c3ccc(CN4CCCCC4)o3)ccc12 ), measured %Inh is 35

Form field %Inh, entry Cc1ccc(C(=O)Nc2ccc(Nc3ccnc4cc(-c5ccccn5)ccc34)cc2O)cc1.Cl : 0

Lab book: %Inh of CS(=O)(=O)c1ccc(-c2nc3n(c2-c2ccncc2)CCC3)cc1 noted as 0

====

Tested on: STK35;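 note: kd values determined as follow-up on hits from a single-replicate KINOMEscan panel screen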
endpoint name: Kd (µM)
Quick note: give the figure in µM, leave out the unit.

// COc1cc2ncn(-c3cc(OCC4CCCO4)c(C(N)=O)s3)c2cc1OC (stereo not shown) : Kd value = 3.6

====

System: CAMKK1
reported conditions: concentration: 1 μM, replicates: in singlicate; n = 1
Please assign label 0 whenever %Inh is at or above 9%, and label 1 whenever it is below.

A selection of reference data follows.
molecule	assay system	label value
Cc1ccc(NC(=O)Nc2cccc(Cl)c2)cc1-c1ccc(C(=O)Nc2ccncc2)cc1	CAMKK1	label 1
Cl.NC(=O)c1cccc(Nc2nccc(Nc3ccc(Oc4cccc(Cl)c4)c(Cl)c3)n2)c1	CAMKK1	label 1
COc1cc2ncnc(Nc3ccc4nc(-c5ccccc5)[nH]c4c3)c2cc1OC.Cl	CAMKK1	label 0
Cc1cc(NCC(c2ccccc2)c2ccccc2)nc(NCc2ccc(C(F)(F)F)cc2)n1	CAMKK1	label 1
CC(C)(C)c1ccc(C(=O)Nc2cn3cc(Cl)ccc3n2)cc1	CAMKK1	label 0

Pending molecule:
Strictly below 9% in %Inh? Cc1csc(-c2nc(Nc3ccncc3)c3ccccc3n2)n1
label 0
